- Tested on: MDA-MB-468 breast
- protocol.summary: NCI-60 one-dose screen, 48 h
- run.parameters: 10 µM unless noted
This is part of a sample that, as a whole, favours compounds with a hit. Of some 83,000 tested, about 20% had one in any assay. Active and inactive are the calls of the source. Rule for the calls: active = growth percent below 10; inactive = the rest.
Outcome codes: T = active, F = inactive

| compound.string | category |
| --- | --- |
| CCCCOc1ccc(S(=O)(=O)N2CCN(c3nccc(N4CCOCC4)n3)CC2)cc1 | T |
| O=c1c(-c2nc3ccccc3[nH]2)cc2ccccc2n1Cc1cn(Cc2ccc(F)cc2)nn1 | T |
| OCc1n(Cc2ccc3ccccc3c2)cc[n+]1Cc1ccc2ccccc2c1 | T |
| COc1cc2ncnc(Nc3ccc(F)c(Cl)c3)c2cc1OCC(=O)N1CCN(c2ccc(F)cc2)CC1 | T |
| C=C(C=O)[C@@H]1CC[C@]2(CO)CC[C@]3(C)[C@H](CC[C@@H]4[C@@]5(C)CCCNC(C)(C)[C@@H]5CC[C@]43C)[C@@H]12 | F |
| COc1ccc(-c2nc3sc(-c4ccc(OC)cc4)c(-c4ccc(OC)cc4)n3c2/C=C/c2ccc(C(C)C)cc2)cc1 | F |
| O=C(O)c1ccc(-n2cc(CNc3ccc(Cl)cc3)c(-c3ccccc3)n2)cc1 | F |
| Clc1ccc(Nc2nnc(-c3ccc4c(c3)OCO4)o2)cc1 | F |
| Cc1ccc(C2=NN(C)C(=O)C3(CCCC3)C2)cc1 | F |

---

- Test system: MDA-MB-468 breast
- protocol.summary: NCI-60 one-dose screen, 48 h
- run.parameters: 10 µM unless noted
The panel holds about 83,000 compounds, 20% with a hit somewhere; the sample as a whole holds those more often. Activity calls are given as the source filed them. Rule for the calls: active = growth percent below 10; inactive = the rest.
Classes used: true = active, false = inactive

| compound | category |
| --- | --- |
| COC1=CC(=O)C(OC)=C(O)C1=O | false |
| CC(=O)ON1CCCC(P(=O)(OCCSC(=O)C(C)(C)C)OCCSC(=O)C(C)(C)C)C1=O (stereo not given) | false |
| O=C1CC(c2ccc3c(c2)OCO3)Nc2ccccc21 (stereo not given) | true |
| COc1ccc(/C=C2\Oc3cc(OCCCCCN4CCCCC4)ccc3C2=O)cc1OC | false |
| CC(C)c1ccc(/C=N/Nc2nc3ccccc3s2)cc1 | false |
| CCN1C(=O)N(CC)C2C1NN=c1s/c(=C3\C(=O)Nc4ccccc43)c(=O)n12 (stereo not given) | true |
| CC(C)(O)CCl | false |
| CC(C)=CC/C=C(/C)[C@H]1CC[C@]2(C)[C@@H]1CC[C@@H]1[C@@]3(C)CC/C(=N/O)C(C)(C)[C@@H]3CC[C@]12C | false |
| O=c1[nH]c(-c2ccccc2)nc2sc3cc(O)ccc3c12 | false |
| COc1cc(-c2nc3occn3c2-c2ccnc(NCCCNS(=O)(=O)c3ccc(O)cc3)n2)ccc1F | false |

---

- System: MDA-MB-468 breast
- protocol.summary: NCI-60 one-dose screen, 48 h (100 = growth as untreated, 0 = no growth, -100 = all killed)
- run.parameters: 10 µM unless noted
The panel holds about 83,000 compounds, 20% with a hit somewhere; the sample as a whole holds those more often.
Label criterion not met if growth falls below 60%; label criterion met in every other case.

| compound | category |
| --- | --- |
| COC1=CC(c2ccc[nH]2)=N/C1=C\c1[nH]c(C)c(CC(=O)OCc2ccccc2)c1C | criterion not met |
| CC(C)=NNc1ccc([N+](=O)[O-])cc1[N+](=O)[O-] | criterion met |
| COc1ccc(-c2nn(-c3cccc(Cl)c3)cc2-c2cc(-c3ccc(Br)cc3)[nH]c(=O)c2C#N)cc1 | criterion met |
| FCOC(C(F)(F)F)C(F)(F)F | criterion met |
| C/C(O)=C(/C=N/C(=S)Nc1ccccc1)C(=O)Nc1ccccc1C | criterion met |
| CCOC(=O)C(CCN(C)C)c1ccccc1 (stereo unspecified) | criterion met |
| O=C1/C(=C/N2N=C(c3ccc4ccccc4c3)CC2c2ccccc2O)SC(=S)N1c1cccnc1 (stereo unspecified) | criterion not met |
| CCC(C)[C@H](NC(=O)NC(=O)NC(=O)CI)C(=O)OC (stereo partly specified) | criterion met |
| CNc1cc2nc3cc(NC)c(C)cc3cc2cc1C | criterion not met |
| Cc1ccccc1C1CC(=O)c2ccccc2C1C (stereo unspecified) | criterion met |
| CCCCN1C(=O)/C(=c2\sc3n(c2=O)C2C(NN=3)N(CC)C(=O)N2CC)c2cc(Cl)ccc21 (stereo unspecified) | criterion not met |
